Entry source: PubChem BioAssay (NCI)

# Test system: SK-MEL-2 melanoma
# EXPERIMENT DESCRIPTION: NCI-60 one-dose screen, 48 h (100 = growth as untreated, 0 = no growth, -100 = all killed)
# COND: 10 µM unless noted
The panel holds about 83,000 compounds, 20% with a hit somewhere; the sample as a whole holds those more often.
OBSERVED PROPERTY: growth (%)
Express your answer in %, writing the number without its unit.

Worked examples follow.
COc1ccc(S(=O)(=O)N(Cc2ccc3c(n2)C=CC(C)(C)O3)C2CCC2)cc1OC	-37.5
Cc1cccc2c(=O)c3c(sc12)c(NCCN)nc1ccccc13	-34.9
CCOC(=O)C(CC(=O)O)=C(C(=O)OCC)C(=O)OCC	128
NCCNc1nc2ccc(F)cc2c2c(=O)c3cc(F)ccc3sc12	91.5

Query string: Consider the compound CC(=Nc1ccccc1)C1=C(O)C(Cc2ccc(F)cc2)NC1=O (stereo not drawn) and give its recorded growth.
Result string: 17.6

Query string: Identify measured growth corresponding to O=C(NCc1ccccc1)C1CN(c2ccc(Cl)cc2)N(c2ccc(Cl)cc2)C1=O (stereo not drawn)
Result string: 85.8

Query string: Retrieve growth measured for COc1ccc2sc3c(NCCCN)nc4ccccc4c3c(=O)c2c1 and print it.
Result string: 96.2

###

# System: DU-145 prostate
# EXPERIMENT DESCRIPTION: NCI-60 one-dose screen, 48 h (100 = growth as untreated, 0 = no growth, -100 = all killed)
# COND: 10 µM unless noted
# Protocol: Cells are grown in 96 well plates and exposed to the test compound for 48 hours. Compounds are tested at a single concentration, which is 10^-5 M for most compounds. The reported endpoint is percent growth (GI% or GIPRCNT), where numbers from 0 - 100% represent growth inhibition, and numbers from -100% - 0 represent cell death. For example, a value of 40 represents 60% growth inhibition. A value of 0 means no net growth occurred over the course of the experiment. […]
About 83,000 compounds went through this panel and 20% of them were active in at least one assay; those are over-represented in the sample as a whole. Calls of active or inactive are those of the source. Rule for the calls: active = growth percent below 10; inactive = the rest.
OBSERVED PROPERTY: growth

The following compounds have reported results that may help.
COc1ccc(-c2nsc3c2NC(=O)CC3c2ccc3c(c2)OCCO3)cc1 (configuration not stated)	5.37% (active)
CC(C)CCNCC(O)Cn1c2ccccc2c2ccccc21 (configuration not stated)	9.71% (active)
O=c1oc2ccc(Br)cc2c(=O)n1-c1ccc(I)cc1F	13.6% (inactive)
O=c1cc(NC2CCN(CCCc3ccccc3)CC2)c2cc(Cl)ccc2o1	15.5% (inactive)
Cc1c(-c2noc(-c3ccc([N+](=O)[O-])cc3)n2)no[n+]1[O-]	99.9% (inactive)

Query string: Please list growth recorded for the compound Cc1ccc(Cn2c(N3CCC(C(=O)NCc4cccs4)CC3)nc3ccccc32)cc1
Result string: 72.8% (inactive)

Query string: Name the recorded growth of the compound listed here: N#Cc1c(N)nc2c(c1N)C(c1ccc(F)cc1)c1ccc(N)cc1O2 (configuration not stated)
Result string: 110% (inactive)

Query string: Supply reported growth belonging to this compound: Cc1cccc2c(=O)c3c(sc12)c(N1CCNCC1)nc1ccccc13
Result string: 67.5% (inactive)

Query string: Given Cc1ccc(C(=O)c2oc3ccc4c(C)cc(=O)oc4c3c2C)cc1 , respond with its growth.
Result string: 64.7% (inactive)

Query string: Could you please provide reported growth for CCN1C(=O)N(c2ccccc2)C2NN=c3s/c(=C4\C(=O)N(C(C)C)c5ccccc54)c(=O)n3C21 (configuration not stated) ? Thanks!
Result string: 9.07% (active)

Query string: Consider the compound COc1ccc(/C=c2\sc3n(c2=O)NC2C(N=3)N(C)C(=O)N2C)cc1 (configuration not stated) . State its measured growth.
Result string: 110% (inactive)

Query string: Please supply the value of reported growth for the item O=C(Nc1ccc(I)cc1F)c1cc(F)ccc1O
Result string: 15.1% (inactive)

Query string: Provide only the value of recorded growth for O=C(Nc1ccc(Cl)cc1F)c1cc(Br)ccc1O
Result string: 17.2% (inactive)

Query string: Give reported growth value for COc1ccc(CN2CCCC(C(=O)c3ccc(C(F)(F)F)cc3)C2)c(O)c1 (configuration not stated)
Result string: 50.6% (inactive)

Query string: Give the value of growth reported for the following: O=C(/C=C/c1ccc(Cl)cc1)c1ccc(Nc2nc(NCCO)nc(N3CCOCC3)n2)cc1
Result string: 92.9% (inactive)

Query string: Give me measured growth, please, for this compound: CCOc1cc2c(cc1OCC)C(c1cc(C)c(O)c(C)c1)NCC2 (configuration not stated)
Result string: 111% (inactive)

Query string: Assign growth to the following record: NC(=O)CSc1nc(-c2ccc(F)cc2)cc(-c2ccco2)n1
Result string: 111% (inactive)

Query string: Please give measured growth of the following entry: O=C1OC(c2ccccc2)(c2ccccc2)c2ccsc21
Result string: 104% (inactive)

Query string: Note down growth recorded for COc1cc(/C=C2\CN(C)C/C(=C\c3cc(CN4CCCCC4)c(O)c(OC)c3)C2=O)cc(CN2CCCCC2)c1O
Result string: 1.15% (active)

Query string: Give the measured growth for COc1ccc(C2=C(c3cccc(OC)c3)C(=O)c3ccc(C)nc3C2=O)cc1
Result string: 54.3% (inactive)
